Recorded SGCB cell-surface expression functional score (log10) values for a group of variants are listed next.
B1: library; numbered along this chain (parent)
chain: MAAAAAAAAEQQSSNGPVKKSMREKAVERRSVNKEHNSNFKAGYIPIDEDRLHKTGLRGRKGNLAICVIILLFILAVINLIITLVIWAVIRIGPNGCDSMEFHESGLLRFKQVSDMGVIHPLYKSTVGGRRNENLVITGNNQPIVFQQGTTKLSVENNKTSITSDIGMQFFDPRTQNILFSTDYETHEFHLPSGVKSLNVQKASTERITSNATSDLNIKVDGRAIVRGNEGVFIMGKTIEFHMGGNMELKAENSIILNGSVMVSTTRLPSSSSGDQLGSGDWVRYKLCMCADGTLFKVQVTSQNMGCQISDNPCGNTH

Variants of: B1
measurement protocol: SGCB cell-surface expression functional score (HA stain, bin4 vs bin1, normalised to synonymous) (log10 ratio); higher = more cell-surface SGCB (functional)
Answer as a number with no unit attached.

Here is how some variants turned out for SGCB cell-surface expression functional score (log10).
E49Q : -0.19
D215C : -1.31
K237T : 0.58
K237D : 0.73
E156Q : 0.19
P192T : -1.46
N199M : -0.42
R29M : -0.81

Output measured SGCB cell-surface expression functional score (log10) for this item: `G244V` 0.12

Output measured SGCB cell-surface expression functional score (log10) for this item: `H190P` 0.42

Output measured SGCB cell-surface expression functional score (log10) for this item: `E230M` 0.53
